target: mTOR (Homo sapiens, UniProt P42345); construct: purchased Invitrogen; assay: mTOR kinase inhibition assay (radiometric or LanthaScreen TR-FRET); assay type: biochemical; settings: read-out: mTORC IC50
measured metric: IC50

Completed entries (count: 5):
>>> recorded_value("CN1CCN(C2CN(C(=O)c3cnc4ccc(-c5ccc6oc(N)nc6c5)cn34)C2)CC1 [Compound 303]")
"< 10 µM"
>>> recorded_value("Nc1nc2cc(-c3ccc4ncc(N5CC(N6CCOCC6)C5)nc4c3)ccc2o1 [Compound 273]")
"< 1 µM"
>>> recorded_value("CN1CC(C(=O)N2CCN(c3cnc4ccc(-c5ccc6oc(N)nc6c5)cc4n3)CC2)C1 [Compound 156]")
"> 10 µM"
>>> recorded_value("Nc1nc2cc(-c3ccc4ncc(-c5ccnc(N6CCOCC6)c5)n4c3)ccc2o1 [Compound 52]")
"< 10 µM"
>>> recorded_value("Nc1nc2cc(-c3ccc4ncc(N5CC(C(=O)N6CCN(C7CC7)CC6)C5)nc4c3)ccc2o1 [Compound 276]")
"< 10 µM"

Exercise: For CN1CCN(c2cnc3ccc(-c4ccc5oc(N)nc5c4)cc3n2)CC1=O [Compound 277] , what is its reported IC50?
Solution: < 10 µM

Exercise: Recorded IC50 of CN(C)[C@@H]1CCN(c2cnc3ccc(-c4ccc5oc(N)nc5c4)cc3n2)C1 [Compound 378] , please.
Solution: < 1 µM

Exercise: Can you share its IC50? I mean this compound: CC1(C)CN(C2CN(c3cnc4ccc(-c5ccc6oc(N)nc6c5)cc4n3)C2)CCN1 [Compound 388]
Solution: < 0.1 µM

###

target: PI3K α (p110α/p85α) (Homo sapiens); construct: purchased Upstate / Millipore Corporation; assay: PI 3-Kinase (human) HTRF assay, PI3K α; type: biochemical; conditions: read-out: PI3K α IC50
Sequence (P42336 whole entry): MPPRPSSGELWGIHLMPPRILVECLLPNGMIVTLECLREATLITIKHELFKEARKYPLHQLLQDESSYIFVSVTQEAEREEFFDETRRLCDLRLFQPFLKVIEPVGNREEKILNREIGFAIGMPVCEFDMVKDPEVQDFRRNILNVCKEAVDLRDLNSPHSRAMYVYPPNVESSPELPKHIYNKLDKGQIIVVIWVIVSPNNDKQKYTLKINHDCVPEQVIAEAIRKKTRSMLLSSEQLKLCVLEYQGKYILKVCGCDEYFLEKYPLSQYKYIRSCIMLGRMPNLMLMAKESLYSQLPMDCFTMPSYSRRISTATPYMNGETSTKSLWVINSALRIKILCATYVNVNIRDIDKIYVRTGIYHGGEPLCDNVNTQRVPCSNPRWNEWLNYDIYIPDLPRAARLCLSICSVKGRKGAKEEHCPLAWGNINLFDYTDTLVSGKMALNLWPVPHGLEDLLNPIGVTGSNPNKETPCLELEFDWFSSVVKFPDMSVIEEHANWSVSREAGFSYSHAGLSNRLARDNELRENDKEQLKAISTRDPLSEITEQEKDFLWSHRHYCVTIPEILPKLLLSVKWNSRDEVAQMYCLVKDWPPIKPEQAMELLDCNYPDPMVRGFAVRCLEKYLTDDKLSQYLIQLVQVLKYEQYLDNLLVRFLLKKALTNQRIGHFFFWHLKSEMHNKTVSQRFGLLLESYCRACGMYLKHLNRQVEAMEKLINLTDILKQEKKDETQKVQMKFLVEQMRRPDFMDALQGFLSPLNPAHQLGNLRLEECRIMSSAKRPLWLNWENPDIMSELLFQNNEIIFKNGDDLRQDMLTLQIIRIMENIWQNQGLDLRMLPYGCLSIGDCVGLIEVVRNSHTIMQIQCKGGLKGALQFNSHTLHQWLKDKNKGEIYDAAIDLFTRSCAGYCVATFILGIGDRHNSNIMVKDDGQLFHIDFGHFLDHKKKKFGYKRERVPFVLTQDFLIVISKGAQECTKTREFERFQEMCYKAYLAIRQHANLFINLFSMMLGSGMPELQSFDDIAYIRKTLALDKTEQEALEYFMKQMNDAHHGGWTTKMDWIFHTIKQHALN
Sequence (P27986 whole entry partner): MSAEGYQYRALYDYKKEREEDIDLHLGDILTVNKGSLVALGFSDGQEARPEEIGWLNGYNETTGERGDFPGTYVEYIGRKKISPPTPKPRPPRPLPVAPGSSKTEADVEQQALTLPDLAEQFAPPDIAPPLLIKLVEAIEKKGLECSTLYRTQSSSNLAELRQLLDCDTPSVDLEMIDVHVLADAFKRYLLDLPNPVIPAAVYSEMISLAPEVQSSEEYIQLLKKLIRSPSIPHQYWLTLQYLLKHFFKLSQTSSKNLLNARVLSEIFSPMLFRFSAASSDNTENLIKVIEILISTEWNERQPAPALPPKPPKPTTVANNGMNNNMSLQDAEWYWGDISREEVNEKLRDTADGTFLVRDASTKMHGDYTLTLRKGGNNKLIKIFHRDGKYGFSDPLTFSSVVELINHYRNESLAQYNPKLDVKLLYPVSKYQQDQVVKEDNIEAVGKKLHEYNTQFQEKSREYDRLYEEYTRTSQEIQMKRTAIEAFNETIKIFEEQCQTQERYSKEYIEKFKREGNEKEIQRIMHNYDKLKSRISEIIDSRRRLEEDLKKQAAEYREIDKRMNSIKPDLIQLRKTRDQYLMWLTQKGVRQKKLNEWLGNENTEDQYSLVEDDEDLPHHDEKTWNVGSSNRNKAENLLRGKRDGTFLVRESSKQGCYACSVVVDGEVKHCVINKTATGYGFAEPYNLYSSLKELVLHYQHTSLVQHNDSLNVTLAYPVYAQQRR
pIC50: −log10 of the molar value.
measured metric: pIC50

Guide cases for pIC50, answers given:
>>> recorded_value("CN(C(=O)c1cnc2ccc(-c3ccc4oc(N)nc4c3)cn12)C1CCOCC1")
"> 7.00"
>>> recorded_value("C[C@H]1CN(c2cnc3ccc(-c4ccc5sc(N)nc5c4)cc3n2)CCN1")
"> 6.00"

Exercise: Under PI3K α (p110α/p85α) (Homo sapiens): pIC50 value of `Nc1nc2cc(-c3ccc4ncc(N5CCC(N6CCOCC6)CC5)nc4c3)ccc2o1` ?
Solution: > 7.00

Exercise: PI3K α (p110α/p85α) (Homo sapiens) / pIC50 / `CNS(=O)(=O)c1cccc(-c2ccc3ncc(C(=O)N4CCOCC4)n3c2)c1` : value?
Solution: < 5.00

Exercise: What value of pIC50 on PI3K α (p110α/p85α) (Homo sapiens) does Nc1nc2cc(-c3ccc4ncc(N5CCNC(C(F)(F)F)C5)nc4c3)ccc2o1 (centres unmarked) have?
Solution: > 7.00

Exercise: What is its pIC50 for PI3K α (p110α/p85α) (Homo sapiens)? Entry: `Cc1cc(-c2ccc3oc(N)nc3c2)cc2c(-c3ccncc3)cnn12`
Solution: > 7.00

Exercise: pIC50 of `CS(=O)(=O)CCN1CCC(NC(=O)c2cnc3ccc(-c4ccc5oc(N)nc5c4)cn23)CC1` on PI3K α (p110α/p85α) (Homo sapiens)?
Solution: > 7.00

Exercise: Recorded pIC50 for `Nc1nc2cc(-c3cn4c(-c5ccncc5)cnc4cn3)ccc2o1` with PI3K α (p110α/p85α) (Homo sapiens), please?
Solution: > 7.00

Exercise: Find pIC50 (PI3K α (p110α/p85α) (Homo sapiens)) for the entry `CCOC(=O)N1CCN(c2cnc3ccc(-c4ccc5oc(N)nc5c4)cc3n2)CC1`
Solution: > 7.00

Exercise: What pIC50 appears in the records for this compound with PI3K α (p110α/p85α) (Homo sapiens)? `CN1CC(n2cnc3ccc(-c4ccc5oc(N)nc5c4)cc3c2=O)C1`
Solution: > 6.00

Exercise: State its pIC50 on PI3K α (p110α/p85α) (Homo sapiens): `C[C@H]1CN(c2cnc3ccc(-c4cccc5c(N)noc45)cc3n2)CCN1`
Solution: < 5.00

Exercise: Query the reported pIC50 for PI3K α (p110α/p85α) (Homo sapiens); item: `Nc1nc2ccc(-c3ccc4ncc(N5CCOCC5)nc4c3)cc2s1`
Solution: > 7.00

Exercise: Item: `Nc1nc2cc(-c3ccc4ncc(C(=O)N5CC(F)C5)n4c3)ccc2o1` Test system: PI3K α (p110α/p85α) (Homo sapiens) Read-out: pIC50 Value: ?
Solution: > 7.00

Exercise: Return pIC50 measured with PI3K α (p110α/p85α) (Homo sapiens) given this compound: `C[C@@H]1CN(c2cnc3ccc(-c4ccc5oc(N)nc5c4)cc3n2)C[C@H](C)O1`
Solution: > 6.00

Exercise: Report pIC50 for `Nc1nc2cc(-c3ccc4ncc(C#CC5CC5)n4c3)ccc2o1` tested on PI3K α (p110α/p85α) (Homo sapiens).
Solution: > 7.00

Exercise: Look up pIC50 with PI3K α (p110α/p85α) (Homo sapiens) for this compound: `Nc1cn2cc(-c3ccc4oc(N)nc4c3)ccc2n1`
Solution: > 6.00

###

target: PI3K δ (Homo sapiens); construct: purchased Upstate / Millipore Corporation; test: PI 3-Kinase (human) HTRF assay, PI3K δ; assay type: biochemical; details: read-out: PI3K δ IC50
Sequence (O00329 whole entry): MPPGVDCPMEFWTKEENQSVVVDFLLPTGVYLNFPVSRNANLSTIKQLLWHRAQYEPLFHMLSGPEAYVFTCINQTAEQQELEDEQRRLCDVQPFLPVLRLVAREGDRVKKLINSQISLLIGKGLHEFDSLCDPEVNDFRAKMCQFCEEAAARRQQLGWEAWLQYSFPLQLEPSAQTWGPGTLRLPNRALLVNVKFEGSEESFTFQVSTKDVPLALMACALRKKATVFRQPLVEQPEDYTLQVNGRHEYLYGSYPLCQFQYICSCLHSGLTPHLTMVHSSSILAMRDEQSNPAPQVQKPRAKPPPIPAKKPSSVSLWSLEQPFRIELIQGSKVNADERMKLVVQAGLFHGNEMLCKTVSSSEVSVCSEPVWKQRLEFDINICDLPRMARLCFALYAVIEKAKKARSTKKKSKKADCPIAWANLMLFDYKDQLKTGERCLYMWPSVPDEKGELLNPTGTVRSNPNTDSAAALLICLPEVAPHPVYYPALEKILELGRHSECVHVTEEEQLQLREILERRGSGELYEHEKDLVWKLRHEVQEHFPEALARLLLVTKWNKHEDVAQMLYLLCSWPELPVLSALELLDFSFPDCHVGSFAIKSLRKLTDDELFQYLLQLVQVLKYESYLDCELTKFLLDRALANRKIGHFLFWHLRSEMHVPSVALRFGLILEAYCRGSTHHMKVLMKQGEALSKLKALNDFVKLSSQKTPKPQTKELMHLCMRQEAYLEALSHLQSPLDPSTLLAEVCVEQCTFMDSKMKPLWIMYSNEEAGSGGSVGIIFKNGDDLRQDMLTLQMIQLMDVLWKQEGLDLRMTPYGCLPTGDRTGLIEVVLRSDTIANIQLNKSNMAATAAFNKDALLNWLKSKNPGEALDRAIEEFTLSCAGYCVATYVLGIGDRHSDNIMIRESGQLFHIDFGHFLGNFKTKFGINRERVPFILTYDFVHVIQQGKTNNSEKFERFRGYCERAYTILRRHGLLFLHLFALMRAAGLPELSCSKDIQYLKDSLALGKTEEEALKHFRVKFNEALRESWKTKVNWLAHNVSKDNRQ
Sequence (P27986 whole entry partner): as the sequence (P27986 whole entry partner) above
measured metric: IC50

>>> recorded_value("COc1ccc(-c2ccc3ncc(C(=O)N4CCOCC4)n3c2)cc1NS(=O)(=O)c1ccccc1")
"> 10 µM"
>>> recorded_value("Nc1noc2ccc(-c3ccc4nccc(-c5ccncc5)c4c3)cc12")
"> 10 µM"

Exercise: Reported IC50 for `Nc1nc2cc(-c3ccc4ncc(OC5CCOCC5)nc4c3)ccc2o1` : what is it?
Solution: < 10 µM

Exercise: Entry `CC(=O)Nc1nc2cc(-c3ccc4nc(N)oc4c3)ccc2s1` has what IC50?
Solution: < 0.1 µM

Exercise: State the recorded IC50 for this entry: `CCN(CC)CCCn1cnc2ccc(-c3ccc4oc(N)nc4c3)cc2c1=O`
Solution: < 10 µM

Exercise: Requested field: IC50. Item: `CCN1CCN(C2CN(c3cnc4ccc(-c5ccc6oc(N)nc6c5)cc4n3)C2)CC1`
Solution: < 1 µM

Exercise: IC50 lookup needed for `Nc1ncc(-c2ccc3oc(N)nc3c2)cn1` , thanks.
Solution: > 10 µM

Exercise: Looking for the measured IC50 of `Nc1nc2ccc(-c3ccc4ncc(N5CCOCC5)nc4c3)cc2o1` , can you help?
Solution: > 10 µM

Exercise: Find the recorded IC50 belonging to `Nc1nc2cc(-c3cnc4ccc(C(=O)N5CCOCC5)cn34)ccc2o1` and report it.
Solution: > 10 µM

###

biological target: PI3K δ (Homo sapiens); construct: purchased Upstate / Millipore Corporation; assay: PI 3-Kinase (human) HTRF assay, PI3K δ; format: biochemical; details: read-out: PI3K δ IC50
Listing of recorded IC50 by entry.

>>> recorded_value("CC(=O)N1CCC(n2cnc3ccc(-c4ccc5oc(N)nc5c4)cc3c2=O)CC1")
"> 10 µM"

Exercise: Please give the measured IC50 for this compound: `Nc1nc2cc(-c3ccc4ncc(N5CCC(N)CC5)nc4c3)ccc2o1`
Solution: < 10 µM

Exercise: Can you look up the measured IC50 of `COCCn1cnc2ccc(-c3ccc4oc(N)nc4c3)cc2c1=O` for me?
Solution: > 10 µM

Exercise: Query (compound): `CS(=O)(=O)Nc1nc2cc(-c3ccc4ncc(C(=O)N5CCOCC5)n4c3)ccc2o1` ; field requested: IC50
Solution: > 10 µM

Exercise: Quick check: IC50 of `CS(=O)(=O)CCN1CCN(C(=O)c2cnc3ccc(-c4ccc5oc(N)nc5c4)cn23)CC1` ?
Solution: < 10 µM

Exercise: Which IC50 value is on record for `Nc1nc2cc(-c3ccc4ncc(N5CC(N6CCOCC6)C5)nc4c3)ccc2o1` ?
Solution: > 10 µM

Exercise: Fill in: IC50 of `CN(C)C1CCN(c2cnc3ccc(-c4ccc5oc(N)nc5c4)cc3n2)CC1` is ___
Solution: < 0.1 µM

Exercise: What value of measured IC50 is listed for `Nc1nc2cc(-c3ccc4ncc(C(=O)NCCOCC(=O)O)n4c3)ccc2o1` ?
Solution: < 10 µM

###

molecular target: PI3K β (p110β/p85α) (Homo sapiens, UniProt P42338); construct: purchased Upstate / Millipore Corporation; assay: PI 3-Kinase (human) HTRF assay, PI3K β; assay type: biochemical; details: read-out: PI3K β IC50
Sequence (P42338 whole entry): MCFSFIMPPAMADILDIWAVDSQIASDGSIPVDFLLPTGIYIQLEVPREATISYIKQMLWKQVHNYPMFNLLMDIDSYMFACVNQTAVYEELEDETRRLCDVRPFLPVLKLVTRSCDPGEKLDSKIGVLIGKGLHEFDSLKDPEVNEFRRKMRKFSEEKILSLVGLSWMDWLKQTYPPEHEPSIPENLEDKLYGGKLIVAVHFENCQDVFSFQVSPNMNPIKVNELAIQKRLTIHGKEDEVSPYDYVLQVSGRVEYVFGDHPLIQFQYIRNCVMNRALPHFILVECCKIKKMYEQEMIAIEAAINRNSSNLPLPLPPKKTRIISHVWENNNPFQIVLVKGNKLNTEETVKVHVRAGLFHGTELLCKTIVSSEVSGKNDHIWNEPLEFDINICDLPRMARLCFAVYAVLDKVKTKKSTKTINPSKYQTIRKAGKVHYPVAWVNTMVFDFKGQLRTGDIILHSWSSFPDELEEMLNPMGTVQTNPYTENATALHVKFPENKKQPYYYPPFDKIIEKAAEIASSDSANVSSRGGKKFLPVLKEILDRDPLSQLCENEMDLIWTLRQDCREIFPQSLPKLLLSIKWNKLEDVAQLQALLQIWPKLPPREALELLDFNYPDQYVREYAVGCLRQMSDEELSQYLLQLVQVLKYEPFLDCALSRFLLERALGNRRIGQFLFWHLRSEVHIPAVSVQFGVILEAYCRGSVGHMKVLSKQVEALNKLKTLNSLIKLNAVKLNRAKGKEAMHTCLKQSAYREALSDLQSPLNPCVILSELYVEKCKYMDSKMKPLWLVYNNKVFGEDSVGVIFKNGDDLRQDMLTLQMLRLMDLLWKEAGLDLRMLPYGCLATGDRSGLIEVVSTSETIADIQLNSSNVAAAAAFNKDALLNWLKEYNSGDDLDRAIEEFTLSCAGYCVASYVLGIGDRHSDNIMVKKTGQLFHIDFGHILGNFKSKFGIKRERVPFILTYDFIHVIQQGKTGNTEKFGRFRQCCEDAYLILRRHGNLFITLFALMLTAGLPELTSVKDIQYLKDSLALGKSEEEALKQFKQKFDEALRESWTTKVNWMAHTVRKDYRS
Sequence (P27986 whole entry partner): as the sequence (P27986 whole entry partner) above
pIC50: −log10 of the molar value.
Each entry below lists one item and its recorded pIC50 value.

Sample answers from the record:
>>> recorded_value("Nc1nc2cc(-c3ccc4ncc(N5CCN(C(=O)[C@@H](N)CO)CC5)nc4c3)ccc2o1")
"> 6.00"
>>> recorded_value("CCNC(=O)c1cnc2ccc(-c3ccc4oc(N)nc4c3)cn12")
"> 6.00"
>>> recorded_value("Nc1nc2cc(-c3ccc4ncc(N5CC(N6CCOCC6)C5)nc4c3)ccc2o1")
"< 5.00"
>>> recorded_value("O=C(c1cnc2ccc(-c3cnc(Cl)c(NS(=O)(=O)c4ccc(F)cc4F)c3)cn12)N1CCOCC1")
"> 7.00"
>>> recorded_value("Nc1nc2cc(-c3cnc4ccc(C(=O)N5C6CCC5COC6)cn34)ccc2o1")
"< 5.00"

Next compound, pIC50 to be filled in.
Exercise: Would you mind telling me what pIC50 value was observed for `Nc1nc2cc(-c3ccc4ncc(-c5cnn(CCO)c5)nc4c3)ccc2o1` ?
Solution: > 5.00
